Exercise: for every item that follows, state its recorded molar heat capacity at constant pressure.
- testMethodNotes: molar heat capacity at constant pressure
- assayContext: 338.2 K; 101.3 kPa; Liquid; Small sample (50 mg) DSC
± gives the expanded uncertainty stated by the source.
Write your answer as a measured quantity: the number, then the unit.

Reference set (3 entries):
>  <molecule>
NCCN1CCNCC1 [N-(β-aminoethyl)piperazine)]

>  <result>
302.2 ± 10 J/K/mol

$$$$
>  <molecule>
O [water]

>  <result>
75.44 ± 2.5 J/K/mol

$$$$
>  <molecule>
CNCCN(C)C [N,N,N'-trimethylethylenediamine]

>  <result>
278.9 ± 9.3 J/K/mol

$$$$

Ask: Give the reported value of molar heat capacity at constant pressure for this record: Cc1ccccc1 [toluene]
Result: 168.6 ± 5.6 J/K/mol

---

- testMethodNotes: molar heat capacity at constant pressure
- assayContext: 353.2 K; 101.3 kPa; Liquid; Small sample (50 mg) DSC
Numbers after ± are expanded uncertainties.
metric: molar heat capacity at constant pressure

Go through the items and report each one's molar heat capacity at constant pressure.
1. O
2. NCCN1CCNCC1
3. Cc1ccccc1
4. CNCCN(C)C

Result:
1. 75.78 ± 2.5 J/K/mol
2. 304.6 ± 10 J/K/mol
3. 175.1 ± 5.8 J/K/mol
4. 286.6 ± 9.5 J/K/mol

---

- testMethodNotes: molar heat capacity at constant pressure
- assayContext: 313.2 K; 101.3 kPa; Liquid; Small sample (50 mg) DSC
Exercise: for every item that follows, state its recorded molar heat capacity at constant pressure.
Answers are plain numbers, in J/K/mol.

Reference set (2 entries):
>  <recordSmiles>
O

>  <quantitativeResult>
75.29

$$$$
>  <recordSmiles>
CNCCN(C)C

>  <quantitativeResult>
262.7

$$$$

Go through the items and report each one's molar heat capacity at constant pressure.
1. NCCN1CCNCC1
2. Cc1ccccc1

Result:
293.1
161.6

---

Exercise: for every item that follows, state its recorded molar heat capacity at constant pressure.
- testMethodNotes: molar heat capacity at constant pressure
- assayContext: 343.2 K; 101.3 kPa; Liquid; Small sample (50 mg) DSC
± gives the expanded uncertainty stated by the source.
Write your answer as a measured quantity: the number, then the unit.

>  <molecule>
O [water]

>  <molar heat capacity at constant pressure>
75.48 ± 2.5 J/K/mol

$$$$
>  <molecule>
Cc1ccccc1 [toluene]

>  <molar heat capacity at constant pressure>
170.4 ± 5.7 J/K/mol

$$$$
>  <molecule>
NCCN1CCNCC1 [N-(β-aminoethyl)piperazine)]

>  <molar heat capacity at constant pressure>
303.3 ± 10 J/K/mol

$$$$

// switching to the query molecule
Ask: Give the reported value of molar heat capacity at constant pressure for this record: CNCCN(C)C [N,N,N'-trimethylethylenediamine]
Result: 281.3 ± 9.3 J/K/mol
